Tested on: A549
Assay: Anticancer activity against human A549 cells assessed as cell growth inhibition measured after 48 hrs by SRB assay
Format: functional
reported endpoint: GI50 (nM)

The following compounds have reported results that may help.
- input smiles: "COc1cc(C(=O)Nc2cc3c(cc2Oc2cc(C)cc(C)c2)C(=O)N[C@@H](CC(N)=O)C(=O)N3)cc(OC)c1OC"
  GI50, nM: 3970
- input smiles: "COC(=O)C[C@@H]1NC(=O)c2cc(OCCc3cc(C)cc(C)c3)c(NC(=O)c3cc(OC)c(OC)c(OC)c3)cc2NC1=O"
  GI50, nM: 2090

[I] COc1cc(C(=O)Nc2cc3c(cc2Oc2cc(C)cc(C)c2)C(=O)N[C@@H](Cc2nnc(C)o2)C(=O)N3)cc(OC)c1OC
[II] CCN(CC)C(=O)C[C@@H]1NC(=O)c2cc(Oc3cc(C)cc(C)c3)c(NC(=O)c3cc(OC)c(OC)c(OC)c3Cl)cc2NC1=O
## Task Higher GI50: I or II ? Write the label of whichever entry you select.
## Result I
(I: 1380 nM, II: 17 nM)

* * *

System: Panel NCI-60 (60 carcinoma cell lines)
Assay: Anticancer activity against human Panel NCI-60 (60 carcinoma cell lines) line assessed as cell growth inhibition measured after 48 hrs by SRB assay
Assay type: functional
# GI50 per entry
Report as a plain number; the unit µM is understood.

- input smiles: "COC(=O)C[C@@H]1NC(=O)c2cc(Oc3cc(C)cc(C)c3)c(NC(=O)c3cc(OC)cc(OC)c3)cc2NC1=O"
  value units: "µM"
  GI50: 0.24
- input smiles: "COc1cc(C(=O)Nc2cc3c(cc2Oc2cc(C)cc(C)c2)C(=O)N[C@@H](Cc2ncnn2C)C(=O)N3)cc(OC)c1OC"
  value units: "µM"
  GI50: 0.16
- input smiles: "COC(=O)CC[C@@H]1NC(=O)c2cc(Oc3cc(C)cc(C)c3)c(NC(=O)c3cc(OC)c(OC)c(OC)c3)cc2NC1=O"
  value units: "µM"
  GI50: 1.2

Below: the item to evaluate.
## Task Provide measured GI50 value, entry: `COc1cc(C(=O)Nc2cc3c(cc2Oc2cc(C)cc(C)c2)C(=O)N[C@@H](Cc2nnc(C)o2)C(=O)N3)cc(OC)c1OC`
## Result 1.58

* * *

System: LOX IMVI
Test: Anticancer activity against human LOX IMVI cells assessed as cell growth inhibition measured after 48 hrs by SRB assay
Type: functional
Property: GI50; scope: individual compounds
The response must be a number in nM with no trailing unit.

See these solved cases before continuing.
- input smiles: "COC(=O)C[C@@H]1NC(=O)c2cc(OCCc3cc(C)cc(C)c3)c(NC(=O)c3cc(OC)c(OC)c(OC)c3)cc2NC1=O"
  value units: "nM"
  measured value: 5150
- input smiles: "COC(=O)C[C@@H]1NC(=O)c2cc(Oc3cc(C)cc(C)c3)c(NC(=O)c3cc(OC)cc(OC)c3)cc2NC1=O"
  value units: "nM"
  measured value: 240

Next item in the queue.
## Task Find the measured GI50 of `COc1cc(C(=O)Nc2cc3c(cc2Oc2cc(C)cc(C)c2)C(=O)N[C@@H](Cc2nnc(C)o2)C(=O)N3)cc(OC)c1OC` and report it.
## Result 1280
